B1: Histone-lysine N-methyltransferase SETD2, residues 2382 to 2430; numbered along this chain, Q9BYW2 (parent)
chain: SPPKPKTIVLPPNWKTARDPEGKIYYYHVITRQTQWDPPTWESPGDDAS

variants of: B1; assay: abundance fitness (aPCA) (normalised: wild type 0, dead -1); higher = more abundant; growth selection in yeast, the domain comes from the species named; conditions: Homo sapiens
I would appreciate it if you labelled entries class 1 when abundance fitness is -0.3 or higher, otherwise class 0.

Below are worked cases with known answers.
{"variant-label": "I8T", "label-class": "class 1"}
{"variant-label": "V9C", "label-class": "class 1"}
{"variant-label": "D46V", "label-class": "class 1"}

Determine whether this variant has abundance fitness no lower than -0.3: `R18S`
class 0

# repeat for `D37W`
class 1
